# System: HCC-44
# Test Name: relative viability (nuclei count vs DMSO), 5 days (fraction); higher = more cells survive
# Experimental Setup: first compound 0.03162 µM
API: label(entry) gives fulfilled if the entry's relative viability is strictly smaller than 0.7; on equality or larger values it gives not fulfilled.

## Task Determine whether this molecule shows relative viability lower than 0.7 (ties excluded): CC(C)Oc1cc(Nc2nc(N[C@@H](C)c3ccc(F)cn3)ncc2Cl)n[nH]1 [AZ23] + CS(=O)(=O)CCNCc1ccc(-c2ccc3ncnc(Nc4ccc(OCc5cccc(F)c5)c(Cl)c4)c3c2)o1 [Lapatinib] (partner 2 µM)
## Result not fulfilled

## Task Next record, please: CC(C)Oc1cc(Nc2nc(N[C@@H](C)c3ccc(F)cn3)ncc2Cl)n[nH]1 [AZ23] + COc1cccc2cc(-c3nc([C@H]4CC[C@H](C(=O)O)CC4)n4ncnc(N)c34)[nH]c12 [OSI-027] (partner 0.5 µM)
## Result fulfilled

## Task Now the same for CC(C)Oc1cc(Nc2nc(N[C@@H](C)c3ccc(F)cn3)ncc2Cl)n[nH]1 [AZ23] + C[C@]1(O)C[C@@H](c2nc(-c3ccc4ccc(-c5ccccc5)nc4c3)c3c(N)nccn32)C1 [Linsitinib] (partner 1 µM)
## Result not fulfilled

## Task Proceed to CC(C)Oc1cc(Nc2nc(N[C@@H](C)c3ccc(F)cn3)ncc2Cl)n[nH]1 [AZ23] + C[C@@H](Oc1cc(-c2cnn(C3CCNCC3)c2)cnc1N)c1c(Cl)ccc(F)c1Cl [Crizotinib] (partner 1 µM)
## Result not fulfilled

## Task Query CC(C)Oc1cc(Nc2nc(N[C@@H](C)c3ccc(F)cn3)ncc2Cl)n[nH]1 [AZ23] + Nc1ncn([C@H]2C[C@H](O)[C@@H](CO)O2)c(=O)n1 [Decitabine] (partner 2 µM) next
## Result not fulfilled

## Task CC(C)Oc1cc(Nc2nc(N[C@@H](C)c3ccc(F)cn3)ncc2Cl)n[nH]1 [AZ23] + CC(=O)Nc1cccc(-n2c(=O)n(C3CC3)c(=O)c3c(Nc4ccc(I)cc4F)n(C)c(=O)c(C)c32)c1 [Trametinib] (partner 0.02 µM) ?
## Result not fulfilled

###

Hi there, I'd appreciate the recorded relative viability for every entry that follows.
# Test system: NCI-H1355
# Test Name: relative viability (nuclei count vs DMSO), 5 days (fraction); higher = more cells survive
# Experimental Setup: first compound 0.1265 µM
I only need the number, thanks.

## Task Can you share its relative viability? I mean this molecule: Clc1ccc(Nc2nnc(Cc3ccncc3)c3ccccc23)cc1 [Vatalanib] + COc1cccc2cc(-c3nc([C@H]4CC[C@H](C(=O)O)CC4)n4ncnc(N)c34)[nH]c12 [OSI-027] (partner 0.5 µM)
## Result 0.431

## Task Try this molecule too: COc1cc(N2CCC(C(N)=O)CC2)ccc1Nc1nc(N)c(Cl)c(Nc2ccccc2S(=O)(=O)C(C)C)n1 [HG-5-88-01] + CC(C)C[C@H](NC(=O)[C@H](Cc1ccccc1)NC(=O)c1cnccn1)B(O)O [Bortezomib] (partner 0.002 µM)
## Result 1.37

## Task Next entry: COc1cc(N2CCC(C(N)=O)CC2)ccc1Nc1nc(N)c(Cl)c(Nc2ccccc2S(=O)(=O)C(C)C)n1 [HG-5-88-01] + CC(=O)c1c(C)c2cnc(Nc3ccc(N4CCNCC4)cn3)nc2n(C2CCCC2)c1=O [Palbociclib] (partner 0.5 µM)
## Result 0.394

## Task Also, C[C@@H]1CN(CC(=O)Nc2ccc3c(c2)Cc2cccc(-c4cc(=O)cc(N5CCOCC5)o4)c2S3)C[C@H](C)O1 + COc1cccc2cc(-c3nc([C@H]4CC[C@H](C(=O)O)CC4)n4ncnc(N)c34)[nH]c12 [OSI-027] (partner 0.5 µM) please.
## Result 0.472

## Task Try COc1cc(N2CCC(C(N)=O)CC2)ccc1Nc1nc(N)c(Cl)c(Nc2ccccc2S(=O)(=O)C(C)C)n1 [HG-5-88-01] + Cc1nc(Nc2ncc(C(=O)Nc3c(C)cccc3Cl)s2)cc(N2CCN(CCO)CC2)n1 [Dasatinib] (partner 0.075 µM) next.
## Result 0.77

## Task Would you kindly repeat that for COc1cc(N2CCC(C(N)=O)CC2)ccc1Nc1nc(N)c(Cl)c(Nc2ccccc2S(=O)(=O)C(C)C)n1 [HG-5-88-01] + CC(=O)Nc1cccc(-n2c(=O)n(C3CC3)c(=O)c3c(Nc4ccc(I)cc4F)n(C)c(=O)c(C)c32)c1 [Trametinib] (partner 0.02 µM) ?
## Result 0.351

## Task Again, but for COc1cc(N2CCC(C(N)=O)CC2)ccc1Nc1nc(N)c(Cl)c(Nc2ccccc2S(=O)(=O)C(C)C)n1 [HG-5-88-01] + COc1cccc2cc(-c3nc([C@H]4CC[C@H](C(=O)O)CC4)n4ncnc(N)c34)[nH]c12 [OSI-027] (partner 0.5 µM)
## Result 0.419

## Task Please give the result for C[C@@H]1CN(CC(=O)Nc2ccc3c(c2)Cc2cccc(-c4cc(=O)cc(N5CCOCC5)o4)c2S3)C[C@H](C)O1 + NC(=O)Nc1cc(-c2cccc(F)c2)sc1C(=O)N[C@H]1CCCNC1 [AZD7762] (partner 0.2 µM) too.
## Result 0.682

## Task What do we get for COc1cc(N2CCC(C(N)=O)CC2)ccc1Nc1nc(N)c(Cl)c(Nc2ccccc2S(=O)(=O)C(C)C)n1 [HG-5-88-01] + Cc1cc(Nc2cc(N3CCN(C)CC3)nc(Sc3ccc(NC(=O)C4CC4)cc3)n2)n[nH]1 [Tozasertib] (partner 0.1 µM) ?
## Result 0.545

## Task Moving on to the next molecule: COc1cc(N2CCC(C(N)=O)CC2)ccc1Nc1nc(N)c(Cl)c(Nc2ccccc2S(=O)(=O)C(C)C)n1 [HG-5-88-01] + Nc1ncn([C@H]2C[C@H](O)[C@@H](CO)O2)c(=O)n1 [Decitabine] (partner 2 µM)
## Result 0.382

## Task Please give the result for COc1cc(N2CCC(C(N)=O)CC2)ccc1Nc1nc(N)c(Cl)c(Nc2ccccc2S(=O)(=O)C(C)C)n1 [HG-5-88-01] + NC(=O)Nc1cc(-c2cccc(F)c2)sc1C(=O)N[C@H]1CCCNC1 [AZD7762] (partner 0.2 µM) too.
## Result 0.731

## Task Could you do the same for COc1cc(N2CCC(C(N)=O)CC2)ccc1Nc1nc(N)c(Cl)c(Nc2ccccc2S(=O)(=O)C(C)C)n1 [HG-5-88-01] + CS(=O)(=O)CCNCc1ccc(-c2ccc3ncnc(Nc4ccc(OCc5cccc(F)c5)c(Cl)c4)c3c2)o1 [Lapatinib] (partner 2 µM) , please?
## Result 1.04

## Task Query C[C@@H]1CN(CC(=O)Nc2ccc3c(c2)Cc2cccc(-c4cc(=O)cc(N5CCOCC5)o4)c2S3)C[C@H](C)O1 + Cc1nc(Nc2ncc(C(=O)Nc3c(C)cccc3Cl)s2)cc(N2CCN(CCO)CC2)n1 [Dasatinib] (partner 0.075 µM) next
## Result 0.723

## Task Try C[C@@H]1CN(CC(=O)Nc2ccc3c(c2)Cc2cccc(-c4cc(=O)cc(N5CCOCC5)o4)c2S3)C[C@H](C)O1 + C[C@@H](Oc1cc(-c2cnn(C3CCNCC3)c2)cnc1N)c1c(Cl)ccc(F)c1Cl [Crizotinib] (partner 1 µM) next.
## Result 1.07

## Task Would you mind doing Clc1ccc(Nc2nnc(Cc3ccncc3)c3ccccc23)cc1 [Vatalanib] + N=C(N)NC(=N)NCCc1ccccc1 [Phenformin] (partner 250 µM) as well?
## Result 0.419

## Task Same thing, different molecule: C[C@@H]1CN(CC(=O)Nc2ccc3c(c2)Cc2cccc(-c4cc(=O)cc(N5CCOCC5)o4)c2S3)C[C@H](C)O1 + CC(C)C[C@H](NC(=O)[C@H](Cc1ccccc1)NC(=O)c1cnccn1)B(O)O [Bortezomib] (partner 0.002 µM)
## Result 1.23

###

Please respond with reported relative viability for every item in the list.
# System: NCI-H1975
# Test Name: relative viability (nuclei count vs DMSO), 5 days (fraction); higher = more cells survive
# Experimental Setup: first compound 0.8 µM

## Task Need relative viability of CCCCCCCCCCCC1=C(O)C(=O)C=C(O)C1=O [Embelin] + N=C(N)NC(=N)NCCc1ccccc1 [Phenformin] (partner 250 µM) , thanks.
## Result 0.413

## Task Also CCCCCCCCCCCC1=C(O)C(=O)C=C(O)C1=O [Embelin] + C[C@@H](Oc1cc(-c2cnn(C3CCNCC3)c2)cnc1N)c1c(Cl)ccc(F)c1Cl [Crizotinib] (partner 1 µM) ?
## Result 0.999

## Task Then what about the compound CCCCCCCCCCCC1=C(O)C(=O)C=C(O)C1=O [Embelin] + O=C(CCCCCCC(=O)Nc1ccccc1)NO [Vorinostat] (partner 1 µM) ?
## Result 0.741

## Task Here is the next compound: CCCCCCCCCCCC1=C(O)C(=O)C=C(O)C1=O [Embelin] + Nc1ncn([C@H]2C[C@H](O)[C@@H](CO)O2)c(=O)n1 [Decitabine] (partner 2 µM)
## Result 0.432

## Task Another compound to look at: CCCCCCCCCCCC1=C(O)C(=O)C=C(O)C1=O [Embelin] + O=C(c1cc(Cc2n[nH]c(=O)c3ccccc23)ccc1F)N1CCN(C(=O)C2CC2)CC1 [Olaparib] (partner 8 µM)
## Result 0.779
